meta.source: paper PMC13181761

experimentalTarget: human C3b (Homo sapiens)
Construct: purchased Complement Technology, Tyler, TX, USA
measurementNotes: SPR kinetic binding to immobilized human C3b
measurementConditions: SPR, 1:1 Langmuir fit, average of 3 independent experiments, SD in brackets
Where a SMILES comes first, the peptide text is derived from it. Bridges are numbered along the chain shown (N, C = ends). [ ]: non-standard residue; d: D form. Trp(1-Me) = Cn1cc(C[C@H](N)C(=O)O)c2ccccc21; Nva(3-Et) = CCC(CC)[C@H](N)C(=O)O; NMeI = CC[C@H](C)[C@H](NC)C(=O)O; Sar = CNCC(=O)O
parameterMeasured: k a, affinity hC3b

compound="CCC(CC)[C@@H]1NC(=O)[C@@H](NC(=O)[C@@H](NC(=O)[C@H](N)Cc2ccc(O)cc2)[C@@H](C)CC)CSSC[C@@H](C(=O)N(C)[C@H](C(N)=O)[C@@H](C)CC)NC(=O)[C@H](CCCNC(=N)N)NC(=O)[C@H](Cc2c[nH]cn2)NC(=O)[C@H](C)NC(=O)CN(C)C(=O)[C@H](Cc2c[nH]c3ccccc23)NC(=O)[C@H](CC(=O)O)NC(=O)[C@H](CCC(N)=O)NC(=O)[C@H](Cc2cn(C)c3ccccc23)NC1=O [Cp40-Val3Dea] (H-[dY]IC[Nva(3-Et)][Trp(1-Me)]QDW[Sar]AHRC[NMeI]-NH2; disulfide 3-13)" parametermeasured="k a, affinity hC3b" result="4.3(0.7) 10^5 M^–1 s^–1"
compound="CC[C@H](C)[C@H](NC(=O)[C@H](N)Cc1ccc(O)cc1)C(=O)N[C@H]1CSSC[C@@H](C(=O)N(C)[C@H](C(N)=O)[C@@H](C)CC)NC(=O)[C@H](CCCNC(=N)N)NC(=O)[C@H](Cc2c[nH]cn2)NC(=O)[C@H](C)NC(=O)CN(C)C(=O)[C@H](Cc2c[nH]c3ccccc23)NC(=O)[C@H](CC(=O)O)NC(=O)[C@H](CCC(N)=O)NC(=O)[C@H](Cc2cn(C)c3ccccc23)NC(=O)[C@H](C(C)C)NC1=O [Cp40, reference compound]" parametermeasured="k a, affinity hC3b" result="17.6(0.3) 10^5 M^–1 s^–1"

---

experimentalTarget: human C3b (Homo sapiens)
Construct: purchased Complement Technology, Tyler, TX, USA
measurementNotes: SPR kinetic binding to immobilized human C3b
measurementConditions: SPR, 1:1 Langmuir fit, average of 3 independent experiments, SD in brackets
Where a SMILES comes first, the peptide text is derived from it. Bridges are numbered along the chain shown (N, C = ends). [ ]: non-standard residue; d: D form. Trp(1-Me) = Cn1cc(C[C@H](N)C(=O)O)c2ccccc21; Nva(3-Et) = CCC(CC)[C@H](N)C(=O)O; NMeI = CC[C@H](C)[C@H](NC)C(=O)O; Sar = CNCC(=O)O
Listing: k d, affinity hC3b of selected compounds
parameterMeasured: k d, affinity hC3b

compound="CCC(CC)[C@@H]1NC(=O)[C@@H](NC(=O)[C@@H](NC(=O)[C@H](N)Cc2ccc(O)cc2)[C@@H](C)CC)CSSC[C@@H](C(=O)N(C)[C@H](C(N)=O)[C@@H](C)CC)NC(=O)[C@H](CCCNC(=N)N)NC(=O)[C@H](Cc2c[nH]cn2)NC(=O)[C@H](C)NC(=O)CN(C)C(=O)[C@H](Cc2c[nH]c3ccccc23)NC(=O)[C@H](CC(=O)O)NC(=O)[C@H](CCC(N)=O)NC(=O)[C@H](Cc2cn(C)c3ccccc23)NC1=O [Cp40-Val3Dea] (H-[dY]IC[Nva(3-Et)][Trp(1-Me)]QDW[Sar]AHRC[NMeI]-NH2; disulfide 3-13)" result="0.6(0.1) 10^–2 s^–1"
compound="CC[C@H](C)[C@H](NC(C)=O)C(=O)N[C@H]1CSSC[C@@H](C(=O)N[C@H](C(N)=O)[C@@H](C)O)NC(=O)[C@H](CCCCN)NC(=O)[C@H](Cc2c[nH]cn2)NC(=O)[C@H](C)NC(=O)CNC(=O)[C@H](Cc2c[nH]c3ccccc23)NC(=O)[C@H](CC(=O)O)NC(=O)[C@H](CCC(N)=O)NC(=O)[C@H](Cc2c[nH]c3ccccc23)NC(=O)[C@H](C(C)C)NC1=O [Cp01-Arg11Lys] (Ac-ICVWQDWGAHKCT-NH2; disulfide 2-12)" result="15(2) 10^–2 s^–1"
compound="CC[C@H](C)[C@H](NC(C)=O)C(=O)N[C@H]1CSSC[C@@H](C(=O)N[C@H](C(N)=O)[C@@H](C)O)NC(=O)[C@H](CCCNC(=N)N)NC(=O)[C@H](Cc2c[nH]cn2)NC(=O)[C@H](C)NC(=O)CNC(=O)[C@H](Cc2c[nH]c3ccccc23)NC(=O)[C@H](CCC(=O)O)NC(=O)[C@H](CCC(N)=O)NC(=O)[C@H](Cc2c[nH]c3ccccc23)NC(=O)[C@H](C(C)C)NC1=O [Cp01-Asp6Glu] (Ac-ICVWQEWGAHRCT-NH2; disulfide 2-12)" result="18(2) 10^–2 s^–1"

---

Listing: k d, affinity hC3b of selected compounds
experimentalTarget: human C3b (Homo sapiens, UniProt P01024)
Construct: purchased Complement Technology, Tyler, TX, USA
Sequence (P01024 23-667 limits assumed): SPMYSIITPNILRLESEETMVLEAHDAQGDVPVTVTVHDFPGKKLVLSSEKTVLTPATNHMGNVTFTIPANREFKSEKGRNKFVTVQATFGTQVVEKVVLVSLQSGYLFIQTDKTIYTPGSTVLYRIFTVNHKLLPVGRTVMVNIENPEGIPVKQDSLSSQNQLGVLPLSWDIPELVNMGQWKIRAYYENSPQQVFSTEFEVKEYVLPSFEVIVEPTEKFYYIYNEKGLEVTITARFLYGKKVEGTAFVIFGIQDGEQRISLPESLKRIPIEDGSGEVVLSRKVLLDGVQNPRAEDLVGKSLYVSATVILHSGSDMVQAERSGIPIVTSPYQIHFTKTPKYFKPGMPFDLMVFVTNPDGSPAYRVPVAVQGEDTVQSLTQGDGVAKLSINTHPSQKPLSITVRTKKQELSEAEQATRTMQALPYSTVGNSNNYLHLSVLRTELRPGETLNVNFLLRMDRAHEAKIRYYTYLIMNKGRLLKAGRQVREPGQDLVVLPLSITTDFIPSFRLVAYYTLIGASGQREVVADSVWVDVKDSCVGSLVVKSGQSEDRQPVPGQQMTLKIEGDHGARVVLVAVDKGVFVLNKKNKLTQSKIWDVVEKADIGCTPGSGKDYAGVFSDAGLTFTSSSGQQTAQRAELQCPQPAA
Sequence (P01024 749-1663 partner limits assumed): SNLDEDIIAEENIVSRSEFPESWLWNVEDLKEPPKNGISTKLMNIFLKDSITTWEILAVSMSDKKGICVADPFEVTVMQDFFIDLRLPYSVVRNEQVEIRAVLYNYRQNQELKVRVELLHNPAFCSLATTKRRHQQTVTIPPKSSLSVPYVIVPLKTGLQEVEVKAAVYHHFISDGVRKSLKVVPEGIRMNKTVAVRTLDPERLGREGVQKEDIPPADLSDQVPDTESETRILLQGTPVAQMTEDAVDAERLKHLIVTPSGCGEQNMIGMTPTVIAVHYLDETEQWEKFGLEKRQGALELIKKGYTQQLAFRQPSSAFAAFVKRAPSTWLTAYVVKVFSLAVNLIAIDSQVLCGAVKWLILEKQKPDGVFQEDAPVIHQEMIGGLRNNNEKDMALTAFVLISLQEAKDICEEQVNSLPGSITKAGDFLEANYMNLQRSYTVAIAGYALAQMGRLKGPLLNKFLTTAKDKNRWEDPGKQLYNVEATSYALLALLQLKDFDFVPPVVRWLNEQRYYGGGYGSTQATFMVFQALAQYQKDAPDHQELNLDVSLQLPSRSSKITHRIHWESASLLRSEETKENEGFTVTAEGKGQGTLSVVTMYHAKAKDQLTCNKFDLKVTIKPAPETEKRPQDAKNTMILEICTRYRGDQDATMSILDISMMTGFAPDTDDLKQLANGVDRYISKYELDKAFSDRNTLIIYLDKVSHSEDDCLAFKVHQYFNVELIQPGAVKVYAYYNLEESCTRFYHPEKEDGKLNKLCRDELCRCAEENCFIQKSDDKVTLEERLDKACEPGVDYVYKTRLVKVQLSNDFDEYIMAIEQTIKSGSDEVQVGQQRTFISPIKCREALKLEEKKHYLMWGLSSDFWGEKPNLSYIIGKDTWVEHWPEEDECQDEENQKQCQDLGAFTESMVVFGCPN
measurementNotes: SPR kinetic binding to immobilized human C3b
measurementConditions: SPR, 1:1 Langmuir fit, average of 3 independent experiments, SD in brackets
Where a SMILES comes first, the peptide text is derived from it. Bridges are numbered along the chain shown (N, C = ends). [ ]: non-standard residue; d: D form. Trp(1-Me) = Cn1cc(C[C@H](N)C(=O)O)c2ccccc21; NMeI = CC[C@H](C)[C@H](NC)C(=O)O; Sar = CNCC(=O)O
parameterMeasured: k d, affinity hC3b

compound="CC[C@H](C)[C@H](NC(C)=O)C(=O)N[C@H]1CSSC[C@@H](C(=O)N[C@H](C(N)=O)[C@@H](C)O)NC(=O)[C@H](CCCNC(=N)N)NC(=O)[C@H](Cc2c[nH]cn2)NC(=O)[C@H](C)NC(=O)CNC(=O)[C@H](Cc2c[nH]c3ccccc23)NC(=O)[C@H](CC(=O)O)NC(=O)[C@H](CCC(N)=O)NC(=O)[C@H](Cc2c[nH]c3ccccc23)NC(=O)[C@H](CC(C)C)NC1=O [Cp01-Val3Leu] (Ac-ICLWQDWGAHRCT-NH2; disulfide 2-12)" parametermeasured="k d, affinity hC3b" result="11(1) 10^–2 s^–1"
compound="CC[C@H](C)[C@H](NC(=O)[C@H](N)Cc1ccc(O)cc1)C(=O)N[C@H]1CSSC[C@@H](C(=O)N(C)[C@H](C(N)=O)[C@@H](C)CC)NC(=O)[C@H](CCCNC(=N)N)NC(=O)[C@H](Cc2c[nH]cn2)NC(=O)[C@H](C)NC(=O)CN(C)C(=O)[C@H](Cc2c[nH]c3ccccc23)NC(=O)[C@H](CC(=O)O)NC(=O)[C@H](CCC(N)=O)NC(=O)[C@H](Cc2cn(C)c3ccccc23)NC(=O)[C@H]([C@@H](C)CC)NC1=O [Cp60] (H-[dY]ICI[Trp(1-Me)]QDW[Sar]AHRC[NMeI]-NH2; disulfide 3-13)" parametermeasured="k d, affinity hC3b" result="0.01 10^–2 s^–1"

---

Listing: k a, affinity hC3b of selected compounds
experimentalTarget: human C3b (Homo sapiens, UniProt P01024)
Construct: purchased Complement Technology, Tyler, TX, USA
measurementNotes: SPR kinetic binding to immobilized human C3b
measurementConditions: SPR, 1:1 Langmuir fit, average of 3 independent experiments, SD in brackets
Where a SMILES comes first, the peptide text is derived from it. Bridges are numbered along the chain shown (N, C = ends). [ ]: non-standard residue; d: D form. Trp(1-Me) = Cn1cc(C[C@H](N)C(=O)O)c2ccccc21; NMeI = CC[C@H](C)[C@H](NC)C(=O)O; aIle = CC[C@@H](C)[C@H](N)C(=O)O; Sar = CNCC(=O)O
parameterMeasured: k a, affinity hC3b

compound="CC[C@H](C)[C@H](NC(C)=O)C(=O)N[C@H]1CSSC[C@@H](C(=O)N[C@H](C(N)=O)[C@@H](C)O)NC(=O)[C@H](CCCNC(=N)N)NC(=O)[C@H](Cc2c[nH]cn2)NC(=O)[C@H](C)NC(=O)CNC(=O)[C@H](Cc2c[nH]c3ccccc23)NC(=O)[C@H](CCC(=O)O)NC(=O)[C@H](CCC(N)=O)NC(=O)[C@H](Cc2c[nH]c3ccccc23)NC(=O)[C@H](C(C)C)NC1=O [Cp01-Asp6Glu] (Ac-ICVWQEWGAHRCT-NH2; disulfide 2-12)" parametermeasured="k a, affinity hC3b" result="3.8(1.6) 10^5 M^–1 s^–1"
compound="CC[C@H](C)[C@H](NC(=O)[C@H](N)Cc1ccc(O)cc1)C(=O)N[C@H]1CSSC[C@@H](C(=O)N(C)[C@H](C(N)=O)[C@@H](C)CC)NC(=O)[C@H](CCCNC(=N)N)NC(=O)[C@H](Cc2c[nH]cn2)NC(=O)[C@H](C)NC(=O)CN(C)C(=O)[C@H](Cc2c[nH]c3ccccc23)NC(=O)[C@H](CC(=O)O)NC(=O)[C@H](CCC(N)=O)NC(=O)[C@H](Cc2cn(C)c3ccccc23)NC(=O)[C@H]([C@@H](C)CC)NC1=O [Cp60] (H-[dY]ICI[Trp(1-Me)]QDW[Sar]AHRC[NMeI]-NH2; disulfide 3-13)" parametermeasured="k a, affinity hC3b" result="17.6(1.4) 10^5 M^–1 s^–1"
compound="CC[C@H](C)[C@H](NC(C)=O)C(=O)N[C@H]1CSSC[C@@H](C(=O)N[C@H](C(N)=O)[C@@H](C)O)NC(=O)[C@H](CCCNC(=N)N)NC(=O)[C@H](Cc2c[nH]cn2)NC(=O)[C@H](C)NC(=O)CNC(=O)[C@H](Cc2c[nH]c3ccccc23)NC(=O)[C@H](CC(=O)O)NC(=O)[C@H](CCC(N)=O)NC(=O)[C@H](Cc2c[nH]c3ccccc23)NC(=O)[C@H](CC(C)C)NC1=O [Cp01-Val3Leu] (Ac-ICLWQDWGAHRCT-NH2; disulfide 2-12)" parametermeasured="k a, affinity hC3b" result="2.0(0.5) 10^5 M^–1 s^–1"
compound="CC[C@H](C)[C@H](NC(C)=O)C(=O)N[C@H]1CSSC[C@@H](C(=O)N[C@H](C(N)=O)[C@@H](C)O)NC(=O)[C@H](CCCCN)NC(=O)[C@H](Cc2c[nH]cn2)NC(=O)[C@H](C)NC(=O)CNC(=O)[C@H](Cc2c[nH]c3ccccc23)NC(=O)[C@H](CC(=O)O)NC(=O)[C@H](CCC(N)=O)NC(=O)[C@H](Cc2c[nH]c3ccccc23)NC(=O)[C@H](C(C)C)NC1=O [Cp01-Arg11Lys] (Ac-ICVWQDWGAHKCT-NH2; disulfide 2-12)" parametermeasured="k a, affinity hC3b" result="3.0(0.8) 10^5 M^–1 s^–1"
compound="CC[C@@H](C)[C@@H]1NC(=O)[C@@H](NC(=O)[C@@H](NC(=O)[C@H](N)Cc2ccc(O)cc2)[C@@H](C)CC)CSSC[C@@H](C(=O)N(C)[C@H](C(N)=O)[C@@H](C)CC)NC(=O)[C@H](CCCNC(=N)N)NC(=O)[C@H](Cc2c[nH]cn2)NC(=O)[C@H](C)NC(=O)CN(C)C(=O)[C@H](Cc2c[nH]c3ccccc23)NC(=O)[C@H](CC(=O)O)NC(=O)[C@H](CCC(N)=O)NC(=O)[C@H](Cc2cn(C)c3ccccc23)NC1=O [Cp40-Val3aIle] (H-[dY]IC[aIle][Trp(1-Me)]QDW[Sar]AHRC[NMeI]-NH2; disulfide 3-13)" parametermeasured="k a, affinity hC3b" result="4.6(0.7) 10^5 M^–1 s^–1"
